Protocol Summary: qHTS Primary assay for Inhibitors of Plasmodium falciparum Dd2 growth in vitro; also: nearly all actives have a fitted effect of over 65% in size
Condition Label: P. falciparum Dd2 growth, SYBR Green, 72 h; series mostly up to 28.9 µM
About 5,300 (4.4%) of roughly 120,000 compounds were called active. Inconclusive results (about 22%) are left out. Calls follow the shape of the dose curve; as a rule, active = well fitted inhibition curve with a large enough effect; inconclusive = small, poorly fitted or top-dose-only effect; inactive = no such curve, though single readings can be large or run the other way. Only a selection was taken, and actives are over-represented in it overall.
Please answer using one outcome listed in active, inactive

Input: Fill in: this test's call for CCOc1ccccc1NC(=O)C1=C(C)Nc2ncnn2C1c1ccc(NC(C)=O)cc1 (stereo not given) is ___
Output: inactive

Input: Fill in: this test's call for CC(NC(=O)c1noc(-c2ccc(F)cc2)n1)c1ccc(F)cc1 (stereo not given) is ___
Output: inactive

Input: Fill in: this test's call for `CCOC(=O)c1ccc(NC(=O)Cn2nc3c(cc2=O)CN(C(C)=O)CC3)cc1` is ___
Output: inactive

Input: Fill in: this test's call for `CC1=C[C@@H](CN2CCC(O)CC2)[C@H](C(C)C)C[C@H]1Cc1nnc(-c2ccccc2F)o1` is ___
Output: active

Input: Fill in: this test's call for CCOc1ccc(C2C(C(=O)Nc3ccc(Cl)cc3)=C(C)Nc3nc(C(F)(F)F)nn32)cc1 (stereo not given) is ___
Output: active

Input: Fill in: this test's call for `COc1ccc(CNC(=O)c2cccc3c2CCN3C(=O)c2ccc(F)cc2)cc1OC` is ___
Output: inactive

Input: Fill in: this test's call for `CCOC(=O)c1[nH]c(C)c(CCC(=O)N2CCN(c3ccccc3)CC2)c1C` is ___
Output: active

Input: Fill in: this test's call for `COc1ccc(CCNc2nc(-c3ccc(F)cc3)cc(C(F)(F)F)n2)cc1OC` is ___
Output: inactive

Input: Fill in: this test's call for COC1C(=O)N(CC2CC2)C12CCN(C(=O)NC1CCCCC1)CC2 (stereo not given) is ___
Output: inactive

Input: Fill in: this test's call for `COc1cc(Nc2nc(-c3ccc(OC)c(OC)c3)nc3ccccc23)cc(OC)c1` is ___
Output: active

====

Protocol Summary: qHTS Primary assay for Inhibitors of Plasmodium falciparum Dd2 growth in vitro; also: nearly all actives have a fitted effect of over 65% in size
Condition Label: P. falciparum Dd2 growth, SYBR Green, 72 h; series mostly up to 28.9 µM
About 5,300 (4.4%) of roughly 120,000 compounds were called active. About 22% were inconclusive and are not listed. Calls come from the whole dose curve; as a rule, active = well fitted inhibition curve with a large enough effect; inconclusive = small, poorly fitted or top-dose-only effect; inactive = no such curve, though single readings can be large or run the other way. The full list was thinned out, with actives kept by preference.
Please answer using one outcome listed in active, inactive

Input: Fill in: this test's call for O=C1NCc2ccccc2CC12CCCN(Cc1ccc(F)cc1O)C2 (stereo not given) is ___
Output: active

Input: Fill in: this test's call for Cc1nc(N)nc(C)c1CC(=O)N1CCC2(CC1)OCCCC2O (stereo not given) is ___
Output: inactive

Input: Fill in: this test's call for CCC(O)c1cc2n(n1)CCN(C(=O)c1cnc(C)nc1-c1ccccc1)C2 (stereo not given) is ___
Output: inactive

Input: Fill in: this test's call for `CN(C)c1cccc(C(=O)Nc2nc3ccc(S(=O)(=O)NC(C)(C)C)cc3s2)c1` is ___
Output: active

Input: Fill in: this test's call for `NS(=O)(=O)c1ccc2nc(NC(=O)COc3ccccc3)sc2c1` is ___
Output: inactive

Input: Fill in: this test's call for `Cc1cc2nc(NC(=O)c3ccc(S(=O)(=O)N4CCOCC4)cc3)sc2cc1C` is ___
Output: inactive

Input: Fill in: this test's call for `Cc1noc(C)c1C(=O)N1CC(N(Cc2cccnc2)CC(C)C)C1` is ___
Output: inactive

Input: Fill in: this test's call for `CNC(=O)CCC[C@H]1NC[C@@H]2CCCN3CCC[C@H]1[C@H]23` is ___
Output: inactive

Input: Fill in: this test's call for `CN1CCCN(S(=O)(=O)c2ccccc2)CCC(=O)NCC1` is ___
Output: inactive

Input: Fill in: this test's call for CCC[S+](=O)([O-])NC1CCN(C(=O)N2CC3CC(C2)[C@H]2CCCC(=O)N2C3)CC1 (stereo not given in full) is ___
Output: inactive
